- Test system: NF-κB
- Test description: NF-κB/293/GFP reporter cell assay (TNF-α induced GFP expression)
- Format: cell-based
- Test conditions: Homo sapiens, HEK293, 293 cells, pTRH1-NF-κB-dscGFP reporter, 2 h pretreatment, 20 ng/ml TNF-α 18 h; read-out: NF-KB/293/GFP EC50
Recorded endpoint: log10(EC50) (log10 of the value in µM)
Base-10 log of EC50, unit µM.

Input line: Endpoint output: log10(EC50) of Cc1ccc(C(=O)NC2=CC(=O)C3OC3C2O)c(O)c1 (racemic) [Example 3] . Value?
Output line: 0.95

Input line: Endpoint output: log10(EC50) of O=C(NC1=CC(=O)C2OC2C1=O)c1c(O)ccc2ccccc12 (racemic) [Example 12] . Value?
Output line: 0.56

Input line: Endpoint output: log10(EC50) of Cc1cccc(C(=O)NC2=CC(=O)C3OC3C2O)c1O (racemic) [Example 4] . Value?
Output line: 1.26

Input line: Endpoint output: log10(EC50) of O=C(NC1=CC(=O)C2OC2C1O)c1ccc2ccccc2c1O (racemic) [Example 8] . Value?
Output line: 0.85

Input line: Endpoint output: log10(EC50) of O=C(NC1=CC(=O)C2OC2C1O)c1cccc(Cl)c1O (racemic) [Example 6] . Value?
Output line: 1.15

Input line: Endpoint output: log10(EC50) of CN(C)c1ccc(C(=O)NC2=CC(=O)C3OC3C2O)c(O)c1 (racemic) [Example 10] . Value?
Output line: 0.40

Input line: Endpoint output: log10(EC50) of Cc1ccc(C(C)C)c(C(=O)NC2=CC(=O)C3OC3C2O)c1O (racemic) [Example 17] . Value?
Output line: 0.83
